A compilation of pKi values for UniProt P08246 from the published literature.
pKi: −log10 of the molar value.
The label depends only on pKi: Satisfied if it is at least 10, Not satisfied if it is smaller.

# Molecule, Class label
data = [
    ("COc1ccc2c(c1OC)C(=O)N(c1c(F)c(F)nc(F)c1F)S2(=O)=O", "Not satisfied"),
    ("CC(C)C[C@H](NC(=O)[C@H](Cc1ccccc1)NC(=O)N1CCOCC1)B(O)O", "Not satisfied"),
    ("CC(C)c1cc(OCCCC(=O)O)cc2c1C(=O)N(COc1cc(C(F)(F)F)nn1-c1ccccc1)S2(=O)=O", "Satisfied"),
    ("COc1cc(C(C)C)c2c(c1)S(=O)(=O)N(COc1cc(C(F)(F)F)nn1-c1ncc(Cl)cc1C(F)(F)F)C2=O", "Satisfied"),
    ("COc1cc(C(C)C)c2c(c1)S(=O)(=O)N(COC(=O)C1CCC(=O)N1)C2=O (stereo not drawn)", "Not satisfied"),
]

Prompt: Answer whether pKi of CC(C)C[C@H](NC(=O)[C@H](Cc1cccc2ccccc12)NS(=O)(=O)c1cccc2cccnc12)B(O)O is greater than or equal to 10.
Response: Not satisfied

Prompt: Answer whether pKi of COc1cc(C(C)C)c2c(c1)S(=O)(=O)N(COC(=O)c1c(Cl)cnc(OCCN(C)C)c1Cl)C2=O is greater than or equal to 10.
Response: Satisfied

Prompt: Answer whether pKi of CCC(NC(=O)C(CC(C)C)NC(=O)OCc1ccccc1)C(=O)C(=O)NCC(O)c1cccc(C(F)(F)F)c1 (stereo not drawn) is greater than or equal to 10.
Response: Not satisfied

Prompt: Answer whether pKi of COc1cc(C(C)C)c2c(c1)S(=O)(=O)N(COC(=O)c1sccc1C)C2=O is greater than or equal to 10.
Response: Satisfied
